# assay details: Apparent permeability of the compound across basolateral side to apical side in human Caco2 cells assessed as drug recovery at 5 uM measured after 2 hrs by LC-MS/MS analysis
# Type: ADME, cell-based
# condition info: Caco-2, read-out: Drug recovery
value type: recovery at 2 h, 5 µM

Worked examples, 2 molecules total:
CC(=O)OC[C@@H]1[C@@H](OC(C)=O)[C@H](OC(C)=O)[C@@H](OC(C)=O)CN1CCCCCCN(C(=O)NC(C)(C)C)C1CCCCC1 = 42%
CCCC(=O)OC[C@@H]1[C@@H](OC(=O)CCC)[C@H](OC(=O)CCC)[C@@H](OC(=O)CCC)CN1CCCCCCN(C(=O)NC(C)(C)C)C1CCCCC1 = < 60%

Okay, now this molecule:
Using the record for CC(C)C(=O)OC[C@@H]1[C@@H](OC(=O)C(C)C)[C@H](OC(=O)C(C)C)[C@@H](OC(=O)C(C)C)CN1CCCCCCN(C(=O)NC(C)(C)C)C1CCCCC1 , report its recovery at 2 h, 5 µM.
< 60%

###

# assay details: Metabolic stability in mouse plasma assessed as parent compound remaining at 5 uM measured after 2 hrs by LC-MS/MS analysis
# Type: ADME, cell-free
# condition info: read-out: Stability
value type: remaining at 2 h, 5 µM (%)
Numbers only, in %.

Example cases with answers are listed next.
CC(C)C(=O)OC[C@@H]1[C@@H](OC(=O)C(C)C)[C@H](OC(=O)C(C)C)[C@@H](OC(=O)C(C)C)CN1CCCCCCN(C(=O)NC(C)(C)C)C1CCCCC1 = 0
CC(=O)OC[C@@H]1[C@@H](OC(C)=O)[C@H](OC(C)=O)[C@@H](OC(C)=O)CN1CCCCCCN(C(=O)NC(C)(C)C)C1CCCCC1 = 0
CC(C)(C)NC(=O)N(CCCCCCN1C[C@H](O)[C@@H](O)[C@H](O)[C@H]1CO)C1CCCCC1 = 93

For the next question, use this molecule.
Which remaining at 2 h, 5 µM reading was recorded for the molecule CCCC(=O)OC[C@@H]1[C@@H](OC(=O)CCC)[C@H](OC(=O)CCC)[C@@H](OC(=O)CCC)CN1CCCCCCN(C(=O)NC(C)(C)C)C1CCCCC1 ?
0

###

# assay details: Half life in BALB/c mouse at 5 mg/kg, iv as bolus administration by LC-MS/MS analysis
# Format: ADME, organism-based
# condition info: in vivo
value type: half-life (min)
Answers are plain numbers, in min.

Reported half-life for CC(C)(C)NC(=O)N(CCCCCCN1C[C@H](O)[C@@H](O)[C@H](O)[C@H]1CO)C1CCCCC1 : what is it?
58.8

###

# assay details: Half life in pooled mouse liver microsomes at 200 uM by LC-MS/MS analysis
# Type: ADME, microsome
# condition info: liver microsomes
value type: half-life at 200 µM (min)
One number for each entry, in min.

CC(=O)OC[C@@H]1[C@@H](OC(C)=O)[C@H](OC(C)=O)[C@@H](OC(C)=O)CN1CCCCCCN(C(=O)NC(C)(C)C)C1CCCCC1 = 2
CCCC(=O)OC[C@@H]1[C@@H](OC(=O)CCC)[C@H](OC(=O)CCC)[C@@H](OC(=O)CCC)CN1CCCCCCN(C(=O)NC(C)(C)C)C1CCCCC1 = 20

Tell me the measured half-life at 200 µM of CC(C)C(=O)OC[C@@H]1[C@@H](OC(=O)C(C)C)[C@H](OC(=O)C(C)C)[C@@H](OC(=O)C(C)C)CN1CCCCCCN(C(=O)NC(C)(C)C)C1CCCCC1 , please.
14

Hey, just so you know, these numbers are from ChEMBL document CHEMBL4041548.
